B1: Pistol ribozyme (parent)
chain: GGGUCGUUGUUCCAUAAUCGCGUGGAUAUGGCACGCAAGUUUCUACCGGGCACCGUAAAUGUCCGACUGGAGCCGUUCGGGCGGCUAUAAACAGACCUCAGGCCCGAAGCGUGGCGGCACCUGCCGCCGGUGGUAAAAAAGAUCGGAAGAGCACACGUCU

- Variants of: B1
- Experiment Notes: aptazyme ON/OFF ratio, guanine; higher = stronger switching; co-transcriptional cleavage with and without guanine
Let's look at some variants and their measured aptazyme ON/OFF ratio.

| Variant Annotation | aptazyme ON/OFF ratio |
| --- | --- |
| U7A U8G G9U U10A U11C C12G | 1.43 |
| U7G U8G U10A U11A C12G C13A | 1.22 |
| G9C U10A U11C C12A | 1.48 |
| U8C G9A U10G U11G C12A | 1.12 |
| U7A U8A G9C U10G U11A C12G | 1.32 |
| U7A U8G G9C U10C U11G C12G C13A | 1.18 |
| U7G U8C G9C U10G U11C C12G | 1.21 |
| U7A U8C G9C U10C U11A C12A C13A | 1.01 |
| U7C U8A G9A U10A U11G C12G C13A | 1.26 |
| G9C U11C C12U C13G | 1.01 |
| U7G U8G U11A C12A C13U | 1.15 |
| U7G U8A G9U U10G U11A C12G C13U | 1.12 |
| G9A U10G U11A C12A C13U | 1.1 |
| U7A G9A C12G C13G | 1.24 |
| U7C G9U U10C U11A C13G | 1.04 |
| U7A U8C G9A U10G U11G C12U | 1.39 |
| U7A U8C G9A U10G U11C C13A | 1.06 |
| G9C U10G U11A C12U | 1.04 |
| U7A U8A G9C U10C U11C C12G | 1.05 |
| G9A C13G | 1.07 |
| U7A U8A G9A U11C C12U C13A | 1.24 |
| U8G G9C U10A U11G C12U C13A | 1.06 |
| U7A U8G G9A U10G U11G C13G | 1.42 |
| U7C U8G U11C C12U C13A | 1.35 |
| U7C U11G C12U C13U | 1.2 |
| U7G U8G G9U U10A U11C C12A C13G | 1.08 |
| U7G U8A U10G U11G C12G C13U | 1.7 |
| U7A G9A U10G U11G C13A | 1.25 |
| U8C G9U U10C C13G | 1.04 |
| U7G G9U U10G C12A C13A | 1.12 |
| U7A U8G U10C | 1.75 |
| U7A G9U U10G U11G C12U C13A | 1.26 |
| U7A U8C G9U U10A C12U C13G | 1.17 |
| U7A U8G G9C U11C C12G C13A | 1.19 |
| U8G U10A U11A C13G | 1.07 |
| U7C U8C G9C U11G C12A C13G | 1.1 |

Where do the numbers come from? From the RNAGym collection of RNA variant scans (doi:10.1021/acssynbio.7b00057).
